- Target Desc: 5-hydroxytryptamine receptor 1A (Homo sapiens, UniProt P08908)
- Sequence (P08908 whole entry): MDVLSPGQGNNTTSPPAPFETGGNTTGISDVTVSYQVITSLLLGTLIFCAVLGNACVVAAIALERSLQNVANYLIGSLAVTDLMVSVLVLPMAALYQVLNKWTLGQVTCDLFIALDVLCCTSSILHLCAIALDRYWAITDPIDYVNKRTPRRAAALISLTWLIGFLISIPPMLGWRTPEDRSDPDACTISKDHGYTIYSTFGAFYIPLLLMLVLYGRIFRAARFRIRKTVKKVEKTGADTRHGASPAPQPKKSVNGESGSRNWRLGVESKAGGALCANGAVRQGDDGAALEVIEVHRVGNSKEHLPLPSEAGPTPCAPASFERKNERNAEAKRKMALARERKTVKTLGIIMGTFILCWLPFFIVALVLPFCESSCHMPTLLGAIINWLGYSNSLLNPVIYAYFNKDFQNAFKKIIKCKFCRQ
- Measurement Description: Displacement of [3H]8-OH-DPAT from human 5HT1A receptor expressed in HEK293 cell membranes measured after 120 mins
Assign Ki to each entry below.
One number for each entry, in nM.

[[record]]
structure_as_smiles = "COc1cccc(CN2CC=C(c3c[nH]c4ccc(OC(C)C)cc34)CC2)c1"
observed = 290

[[record]]
structure_as_smiles = "CC(C)Oc1ccc2[nH]cc(C3=CCN(Cc4ccco4)CC3)c2c1"
observed = 431

[[record]]
structure_as_smiles = "CCOc1ccc2[nH]cc(C3=CCN(Cc4ccc(OC)cc4)CC3)c2c1"
observed = 194

[[record]]
structure_as_smiles = "COc1cccc(CN2CC=C(c3c[nH]c4ccc(OC)cc34)CC2)c1"
observed = 135

[[record]]
structure_as_smiles = "C1=C(c2c[nH]c3ccccc23)CCN(Cc2cccs2)C1"
observed = 305

[[record]]
structure_as_smiles = "COc1ccc(CN2CC=C(c3c[nH]c4ccc(OC)cc34)CC2)cc1"
observed = 134

[[record]]
structure_as_smiles = "COc1ccc2[nH]cc(C3=CCN(Cc4cccs4)CC3)c2c1"
observed = 157

[[record]]
structure_as_smiles = "COc1ccc2[nH]cc(C3=CCN(Cc4ccccc4)CC3)c2c1"
observed = 139

[[record]]
structure_as_smiles = "COc1ccc(CN2CC=C(c3c[nH]c4ccc(OC(C)C)cc34)CC2)cc1"
observed = 378

[[record]]
structure_as_smiles = "CCOc1ccc2[nH]cc(C3=CCN(Cc4ccccc4)CC3)c2c1"
observed = 220


# return Ki for each item in the list
1. C1=C(c2c[nH]c3ccccc23)CCN(Cc2ccccc2)C1
2. COc1cccc(CN2CC=C(c3c[nH]c4ccccc34)CC2)c1
3. COc1ccc2[nH]cc(C3=CCN(Cc4ccco4)CC3)c2c1

Response line:
1. 354
2. 243
3. 195

Provide reported Ki for each item, in the same order as listed.
1. CCOc1ccc2[nH]cc(C3=CCN(Cc4cccs4)CC3)c2c1
2. COc1ccc(CN2CC=C(c3c[nH]c4ccccc34)CC2)cc1

Response line:
1. 139
2. 243

---

- Target Desc: D(2) dopamine receptor (Homo sapiens, UniProt P14416)
- Sequence (P14416 whole entry): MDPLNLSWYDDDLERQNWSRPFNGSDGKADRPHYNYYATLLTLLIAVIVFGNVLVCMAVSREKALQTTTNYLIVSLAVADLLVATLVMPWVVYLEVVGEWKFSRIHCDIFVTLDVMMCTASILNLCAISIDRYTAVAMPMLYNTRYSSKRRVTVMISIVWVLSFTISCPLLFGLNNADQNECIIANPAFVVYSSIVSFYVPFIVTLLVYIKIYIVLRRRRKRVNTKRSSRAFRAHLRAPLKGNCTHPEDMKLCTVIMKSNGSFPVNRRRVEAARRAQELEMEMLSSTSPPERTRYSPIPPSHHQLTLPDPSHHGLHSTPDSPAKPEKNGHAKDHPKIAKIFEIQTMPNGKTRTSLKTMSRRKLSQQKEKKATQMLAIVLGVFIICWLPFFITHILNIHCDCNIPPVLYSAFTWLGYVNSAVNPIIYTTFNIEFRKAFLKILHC
- Measurement Description: Displacement of [3H]Spiperone from human D2S receptor expressed in CHOK1 cell membranes measured after 120 mins
pKi: −log10 of the molar value.
Assign class by pKi: not lower than 7 means Yes; lower than 7 means No.

These recorded examples may help you get a feel for the data.
[[record]]
structure_as_smiles = "COc1cccc(CN2CC=C(c3c[nH]c4ccccc34)CC2)c1"
group_label = "Yes"

[[record]]
structure_as_smiles = "COc1cccc(CN2CC=C(c3c[nH]c4ccc(OC(C)C)cc34)CC2)c1"
group_label = "No"

[[record]]
structure_as_smiles = "CC(C)Oc1ccc2[nH]cc(C3=CCN(Cc4cccs4)CC3)c2c1"
group_label = "No"

[[record]]
structure_as_smiles = "C1=C(c2c[nH]c3ccccc23)CCN(Cc2ccccc2)C1"
group_label = "Yes"

[[record]]
structure_as_smiles = "CC(C)Oc1ccc2[nH]cc(C3=CCN(Cc4ccccc4)CC3)c2c1"
group_label = "No"


Here is another molecule to look at.
Prompt line: Assess whether reported pKi for "C1=C(c2c[nH]c3ccccc23)CCN(Cc2ccco2)C1" sits at 7 or higher.
Response line: No
